Ki overview
# target-or-system: α1a-AR (Homo sapiens)
# Sequence (P35348 1-455 isoform P35348-4): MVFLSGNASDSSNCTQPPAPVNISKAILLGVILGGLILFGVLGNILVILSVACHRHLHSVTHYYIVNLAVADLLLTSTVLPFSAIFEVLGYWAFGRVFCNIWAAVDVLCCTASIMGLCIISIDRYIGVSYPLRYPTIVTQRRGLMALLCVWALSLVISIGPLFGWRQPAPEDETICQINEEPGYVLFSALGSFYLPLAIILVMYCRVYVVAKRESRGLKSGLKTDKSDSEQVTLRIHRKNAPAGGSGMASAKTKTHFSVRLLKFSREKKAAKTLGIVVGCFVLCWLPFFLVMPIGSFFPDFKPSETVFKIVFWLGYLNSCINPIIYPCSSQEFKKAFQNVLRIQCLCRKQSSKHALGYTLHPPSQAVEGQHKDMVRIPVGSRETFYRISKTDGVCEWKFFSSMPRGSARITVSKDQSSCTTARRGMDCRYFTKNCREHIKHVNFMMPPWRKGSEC

>  <compound>
CC(C)Oc1ccccc1N1CCN([C@H]2CC[C@H](NC(=O)Nc3ccc(F)cc3F)CC2)CC1 [Cpd 23]

>  <unit-tag>
nM

>  <Ki>
3.1

$$$$
>  <compound>
COc1ccc(C)cc1NC(=O)N[C@H]1CC[C@@H](N2CCN(c3ccccc3OC(C)C)CC2)CC1 [Cpd 33]

>  <unit-tag>
nM

>  <Ki>
37

$$$$
>  <compound>
COc1ccc(Cl)cc1NC(=O)N[C@H]1CC[C@@H](N2CCN(c3ccccc3OC(C)C)CC2)CC1 [Cpd 18]

>  <unit-tag>
nM

>  <Ki>
101

$$$$
>  <compound>
CC(C)Oc1ccccc1N1CCN([C@H]2CC[C@@H](NC(=O)Nc3ccc(OC(F)(F)F)cc3)CC2)CC1 [Cpd 31]

>  <unit-tag>
nM

>  <Ki>
48

$$$$
>  <compound>
COc1ccc(NC(=O)N[C@H]2CC[C@@H](N3CCN(c4ccccc4OC(C)C)CC3)CC2)cc1Cl [Cpd 34]

>  <unit-tag>
nM

>  <Ki>
73

$$$$
>  <compound>
CC(C)Oc1ccccc1N1CCN([C@H]2CC[C@@H](NC(=O)Nc3cccc(Cl)c3)CC2)CC1 [Cpd 11]

>  <unit-tag>
nM

>  <Ki>
22.2

$$$$
>  <compound>
CC(C)Oc1ccccc1N1CCN([C@H]2CC[C@@H](NC(=O)Nc3cc(F)ccc3F)CC2)CC1 [Cpd 24]

>  <unit-tag>
nM

>  <Ki>
25.8

$$$$
>  <compound>
CC(C)Oc1ccccc1N1CCN([C@H]2CC[C@@H](NC(=O)Nc3c(F)cccc3F)CC2)CC1 [Cpd 26]

>  <unit-tag>
nM

>  <Ki>
51.6

$$$$
